// values below are reported GI50
target: Ba/F3-EGFR-L858R C797S cells (Homo sapiens, UniProt P00533, C797S/L858R, cells depend on it); assay: Ba/F3 cell survival assay, EGFR L858R C797S; format: cell-based; conditions: without IL-3, without EGF, 48 h; read-out: BA/F3 (EGFR L858R C797S) IC50
Sequence (P00533 whole entry C797S/L858R): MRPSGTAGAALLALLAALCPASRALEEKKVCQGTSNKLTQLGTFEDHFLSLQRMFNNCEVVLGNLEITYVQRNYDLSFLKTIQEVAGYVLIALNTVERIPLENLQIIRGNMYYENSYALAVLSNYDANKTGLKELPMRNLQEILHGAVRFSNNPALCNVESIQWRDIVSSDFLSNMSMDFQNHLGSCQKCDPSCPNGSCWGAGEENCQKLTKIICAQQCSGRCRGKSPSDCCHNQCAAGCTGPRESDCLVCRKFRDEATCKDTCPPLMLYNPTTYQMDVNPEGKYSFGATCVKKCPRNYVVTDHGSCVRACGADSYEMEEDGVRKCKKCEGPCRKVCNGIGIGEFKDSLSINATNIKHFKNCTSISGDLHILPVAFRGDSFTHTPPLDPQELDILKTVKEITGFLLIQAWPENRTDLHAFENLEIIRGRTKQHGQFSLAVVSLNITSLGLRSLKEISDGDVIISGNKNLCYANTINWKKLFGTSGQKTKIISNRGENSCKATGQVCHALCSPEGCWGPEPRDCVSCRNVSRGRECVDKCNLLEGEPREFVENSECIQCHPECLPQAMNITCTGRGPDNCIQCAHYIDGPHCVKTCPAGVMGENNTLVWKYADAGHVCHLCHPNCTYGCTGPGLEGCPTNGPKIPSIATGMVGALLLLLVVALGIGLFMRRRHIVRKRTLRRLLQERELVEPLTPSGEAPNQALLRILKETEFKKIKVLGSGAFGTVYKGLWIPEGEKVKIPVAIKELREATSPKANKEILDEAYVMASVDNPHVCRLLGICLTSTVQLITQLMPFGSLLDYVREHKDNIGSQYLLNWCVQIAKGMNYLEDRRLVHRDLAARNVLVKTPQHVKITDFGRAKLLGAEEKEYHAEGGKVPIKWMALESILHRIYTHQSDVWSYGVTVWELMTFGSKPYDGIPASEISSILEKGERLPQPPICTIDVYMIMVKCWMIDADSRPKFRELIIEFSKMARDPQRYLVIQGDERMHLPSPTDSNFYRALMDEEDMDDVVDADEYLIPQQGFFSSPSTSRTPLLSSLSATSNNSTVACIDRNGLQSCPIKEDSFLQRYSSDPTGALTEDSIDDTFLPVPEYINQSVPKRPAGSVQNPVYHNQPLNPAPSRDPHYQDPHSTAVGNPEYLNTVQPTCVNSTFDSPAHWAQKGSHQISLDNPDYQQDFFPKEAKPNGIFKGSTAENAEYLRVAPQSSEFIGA
quantity-kind: GI50 (nM)

1) O=C1NCCc2[nH]c(-c3ccncc3OCC3COCCO3)c(Nc3cccc(Cl)c3Cl)c21 (single isomer, unassigned) [Example 8]; 1.2
2) CCc1c(Cl)cccc1Nc1c(-c2ccncc2OC[C@@H]2CN(C)CCO2)[nH]c2c1C(=O)NCC2 [Example 56]; 1.31
3) COc1c(F)cccc1Nc1c(-c2ccncc2OCC2COCCO2)[nH]c2c1C(=O)NCC2 (single isomer, unassigned) [Example 5]; 2.67
4) COc1c(F)cccc1Nc1c(-c2ccncc2OC[C@@H]2COCCN2C)[nH]c2c1C(=O)NCC2 [Example 20]; 0.791
5) COc1c(Cl)cccc1Nc1c(-c2ccncc2OC[C@@H]2COCCO2)[nH]c2c1C(=O)NCC2 (single isomer, unassigned) [Example 2]; 0.603
6) COc1c(F)cccc1Nc1c(-c2ccncc2OCC2CN(C)CCO2)[nH]c2c1C(=O)NCC2 (single isomer, unassigned) [Example 14]; 1.91
7) Cc1c(Cl)cccc1Nc1c(-c2ccncc2OC[C@@H]2CN(C)CCO2)[nH]c2c1C(=O)NCC2 [Example 42]; 1.63

* * *

target: EGFR with insertion of SVD between D770 and N771 (EGFR ins SVD) (Homo sapiens, UniProt P00533, DUP768-770); construct: made in house; host or cells: Sf9 insect cells (baculovirus); assay: Exon20-Mutant-EGFR(D770_N771insSVD) kinase assay (TR-FRET); type: biochemical; conditions: 2 mM ATP, several values per example where printed
Sequence (P00533 with tags, fused parts or gaps DUP768-770): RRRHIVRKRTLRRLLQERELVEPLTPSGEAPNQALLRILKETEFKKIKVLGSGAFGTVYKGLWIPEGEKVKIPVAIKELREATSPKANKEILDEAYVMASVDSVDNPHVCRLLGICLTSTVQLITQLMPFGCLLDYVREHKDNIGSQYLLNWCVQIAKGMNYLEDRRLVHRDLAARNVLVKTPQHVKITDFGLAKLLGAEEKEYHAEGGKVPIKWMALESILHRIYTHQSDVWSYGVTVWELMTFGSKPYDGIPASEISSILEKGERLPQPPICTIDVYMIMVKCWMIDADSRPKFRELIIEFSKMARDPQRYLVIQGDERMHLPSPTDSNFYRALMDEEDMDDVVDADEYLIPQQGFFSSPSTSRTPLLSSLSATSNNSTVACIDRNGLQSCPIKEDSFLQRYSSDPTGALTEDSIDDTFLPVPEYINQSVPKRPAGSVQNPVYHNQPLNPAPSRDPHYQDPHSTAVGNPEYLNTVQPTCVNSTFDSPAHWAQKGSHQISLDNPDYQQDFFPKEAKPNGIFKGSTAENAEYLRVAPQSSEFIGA
Each entry below carries its recorded mutEGFR (D770_N771insSVD) kinase assay IC50.
quantity-kind: mutEGFR (D770_N771insSVD) kinase assay IC50 (nM)

1. Cc1c(F)cccc1Nc1c(-c2ccncc2OCC2CN(C)CCO2)[nH]c2c1C(=O)NCC2 (single isomer, unassigned) [Example 63]; 0.265
2. COc1c(Cl)cc(F)cc1Nc1c(-c2ccncc2OC[C@@H]2CN(C)CCO2)[nH]c2c1C(=O)NCC2; 0.118
3. Cc1c(Cl)cccc1Nc1c(-c2ccncc2OCC2COC(C)(C)CO2)[nH]c2c1C(=O)NCC2 (centres unmarked) [Example 44]; 0.15
4. CCc1c(Cl)cccc1Nc1c(-c2ccncc2OCC2CN(C)CCO2)[nH]c2c1C(=O)NCC2 (centres unmarked); 0.547
5. COc1c(Cl)cccc1Nc1c(-c2ccncc2O[C@H](C)C2COCCO2)[nH]c2c1C(=O)NCC2 (single isomer, unassigned) [Example 60]; 0.305
6. CCc1c(F)cccc1Nc1c(-c2ccncc2OCC2COC(C)(C)CO2)[nH]c2c1C(=O)NCC2 (centres unmarked) [Example 68]; 0.267
7. CCc1c(Cl)cccc1Nc1c(-c2ccncc2OC[C@@H]2COCCO2)[nH]c2c1C(=O)NCC2 (single isomer, unassigned); 0.426
8. Cc1c(F)cccc1Nc1c(-c2ccncc2OCC2COCCO2)[nH]c2c1C(=O)NCC2 (single isomer, unassigned) [Example 49]; 0.17
9. Cc1c(Cl)cccc1Nc1c(-c2ccncc2OC[C@H]2COCCN2C)[nH]c2c1C(=O)NCC2; 0.225
10. CCc1c(F)cccc1Nc1c(-c2ccncc2OCC2COC(C)(C)CO2)[nH]c2c1C(=O)NCC2 (single isomer, unassigned) [Example 70]; 0.168
11. COc1c(Cl)cccc1Nc1c(-c2ccncc2OC[C@H]2COCCO2)[nH]c2c1C(=O)NCC2 (single isomer, unassigned); 0.137
12. COc1c(Cl)cccc1Nc1c(-c2ccncc2OCCC2COCCO2)[nH]c2c1C(=O)NCC2 (single isomer, unassigned) [Example 26]; 0.213
13. O=C1NCCc2[nH]c(-c3ccncc3OCC3COCCO3)c(Nc3cccc(Cl)c3Cl)c21 (single isomer, unassigned) [Example 9]; 0.0891
14. COc1c(Cl)cc(F)cc1Nc1c(-c2ccncc2OC[C@@H]2CN(CC(F)(F)F)CCO2)[nH]c2c1C(=O)NCC2; 0.249

* * *

target: Ba/F3-ERBB2-A775_G776insYVMA cells (Homo sapiens, UniProt P04626, DUP772-775, cells depend on it); experiment: Ba/F3 cell survival assay, ERBB2 A775_G776insYVMA; format: cell-based; settings: without IL-3, without EGF, 48 h; read-out: BA/F3 (ERBB2 A775_G776 insYVMA) IC50
Sequence (P04626 with tags, fused parts or gaps DUP772-775): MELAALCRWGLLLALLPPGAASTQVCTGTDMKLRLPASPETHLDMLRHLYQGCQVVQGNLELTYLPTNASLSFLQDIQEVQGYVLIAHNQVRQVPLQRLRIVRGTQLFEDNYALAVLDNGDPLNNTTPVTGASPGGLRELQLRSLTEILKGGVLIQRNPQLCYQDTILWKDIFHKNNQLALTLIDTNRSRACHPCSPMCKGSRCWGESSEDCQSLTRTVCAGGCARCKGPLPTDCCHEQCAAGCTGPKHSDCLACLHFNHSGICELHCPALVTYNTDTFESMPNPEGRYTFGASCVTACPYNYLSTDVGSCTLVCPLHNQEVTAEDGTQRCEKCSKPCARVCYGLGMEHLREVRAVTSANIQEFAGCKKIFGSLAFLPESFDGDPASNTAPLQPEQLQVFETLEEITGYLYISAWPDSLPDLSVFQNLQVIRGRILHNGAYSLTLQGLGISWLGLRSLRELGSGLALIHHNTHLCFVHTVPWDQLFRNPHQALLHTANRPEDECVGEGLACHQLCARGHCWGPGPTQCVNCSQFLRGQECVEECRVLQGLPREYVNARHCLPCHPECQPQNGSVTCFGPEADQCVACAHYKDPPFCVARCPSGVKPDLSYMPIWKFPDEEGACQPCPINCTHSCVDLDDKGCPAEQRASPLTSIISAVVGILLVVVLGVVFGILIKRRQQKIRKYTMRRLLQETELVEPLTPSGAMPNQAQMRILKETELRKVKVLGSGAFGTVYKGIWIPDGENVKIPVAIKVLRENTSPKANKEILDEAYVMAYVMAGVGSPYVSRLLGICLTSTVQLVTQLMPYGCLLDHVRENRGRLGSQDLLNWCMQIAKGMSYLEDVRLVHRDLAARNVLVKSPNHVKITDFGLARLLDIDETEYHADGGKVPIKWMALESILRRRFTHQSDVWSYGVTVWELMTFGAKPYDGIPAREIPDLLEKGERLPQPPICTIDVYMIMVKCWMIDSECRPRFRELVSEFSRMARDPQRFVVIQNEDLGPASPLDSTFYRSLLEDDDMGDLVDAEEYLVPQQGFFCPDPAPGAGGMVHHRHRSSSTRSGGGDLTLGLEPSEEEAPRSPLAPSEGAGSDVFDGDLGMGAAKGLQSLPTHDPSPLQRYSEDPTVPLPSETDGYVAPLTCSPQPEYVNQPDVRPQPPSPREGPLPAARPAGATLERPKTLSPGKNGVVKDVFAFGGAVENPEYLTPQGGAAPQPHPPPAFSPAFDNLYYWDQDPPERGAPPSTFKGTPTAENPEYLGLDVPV
quantity-kind: GI50 (nM)

1. COc1c(Cl)cccc1Nc1c(-c2ccncc2OC[C@@H]2COCCO2)[nH]c2c1C(=O)NCC2 (single isomer, unassigned); 8.31
2. COc1c(Cl)cccc1Nc1c(-c2ccncc2OC[C@@H]2COCCN2C)[nH]c2c1C(=O)NCC2; 13.4
3. Cc1c(F)cccc1Nc1c(-c2ccncc2OCC2COCCO2)[nH]c2c1C(=O)NCC2 (single isomer, unassigned); 39.8
4. CCc1c(Cl)cccc1Nc1c(-c2ccncc2OC[C@@H]2CN(C)CCO2)[nH]c2c1C(=O)NCC2; 13.5
5. COc1c(Cl)cccc1Nc1c(-c2ccncc2OCC2COC(C)(C)CO2)[nH]c2c1C(=O)NCC2 (single isomer, unassigned); 16.7
6. Cc1c(Cl)cccc1Nc1c(-c2ccncc2OCC2COC(C)(C)CO2)[nH]c2c1C(=O)NCC2 (single isomer, unassigned); 11
7. Cc1c(Cl)cccc1Nc1c(-c2ccncc2OC[C@@H]2CN(C)CCO2)[nH]c2c1C(=O)NCC2; 13.2
8. COc1c(F)cccc1Nc1c(-c2ccncc2OCC2CN(C)CCO2)[nH]c2c1C(=O)NCC2 (single isomer, unassigned); 13.6
9. O=C1NCCc2[nH]c(-c3ccncc3OCC3COCCO3)c(Nc3cccc(Cl)c3Cl)c21 (single isomer, unassigned); 13.1
10. COc1c(F)cccc1Nc1c(-c2ccncc2OC[C@@H]2COCCN2C)[nH]c2c1C(=O)NCC2; 23.5
11. COc1c(F)cccc1Nc1c(-c2ccncc2OCC2COCCO2)[nH]c2c1C(=O)NCC2 (single isomer, unassigned); 31.8
12. Cc1c(Cl)cccc1Nc1c(-c2ccncc2OC[C@H]2COCCO2)[nH]c2c1C(=O)NCC2 (single isomer, unassigned); 10.3

* * *

molecular target: Bub1 (Homo sapiens, UniProt O43683); construct: catalytic domain of human Bub1 (amino acids 704-1085); His6 (N); made in house; host or cells: Hi5 insect cells; assay: Bub1 TR-FRET high ATP kinase assay; format: biochemical; conditions: Bub1 high ATP (2 mM) IC50 [mol/l], 2 mM ATP
Sequence (O43683 704-1085): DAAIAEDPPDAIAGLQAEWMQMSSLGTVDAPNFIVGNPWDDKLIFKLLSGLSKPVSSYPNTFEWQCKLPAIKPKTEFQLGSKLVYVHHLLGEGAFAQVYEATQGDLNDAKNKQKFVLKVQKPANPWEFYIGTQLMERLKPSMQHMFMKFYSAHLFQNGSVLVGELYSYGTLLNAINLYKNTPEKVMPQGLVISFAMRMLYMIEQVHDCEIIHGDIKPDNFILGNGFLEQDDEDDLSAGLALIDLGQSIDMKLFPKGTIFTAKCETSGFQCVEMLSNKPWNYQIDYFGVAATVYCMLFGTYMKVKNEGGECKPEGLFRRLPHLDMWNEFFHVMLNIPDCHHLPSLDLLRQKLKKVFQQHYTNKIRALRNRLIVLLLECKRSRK
pIC50: −log10 of the molar value.
quantity-kind: pIC50

1) CCc1c(Cl)cccc1Nc1c(-c2ccncc2OC[C@@H]2CN(C)CCO2)[nH]c2c1C(=O)NCC2; 4.78
2) O=C1NCCc2[nH]c(-c3ccncc3OCC3COCCO3)c(Nc3cccc(F)c3CC(F)F)c21 (stereo not shown); 5.06
3) COc1c(F)cccc1Nc1c(-c2ccncc2OC[C@H]2COCCN2C)[nH]c2c1C(=O)NCC2; 4.72

* * *

molecular target: EGFR with insertion of SVD between D770 and N771 (EGFR ins SVD) (Homo sapiens, UniProt P00533, DUP768-770); construct: made in house; host or cells: Sf9 insect cells (baculovirus); assay: Exon20-Mutant-EGFR(D770_N771insSVD) kinase assay (TR-FRET); format: biochemical; conditions: 2 mM ATP, several values per example where printed
Recorded mutEGFR (D770_N771insSVD) kinase assay IC50, one value per entry.
quantity-kind: mutEGFR (D770_N771insSVD) kinase assay IC50 (pM)

1) COc1c(Cl)cc(F)cc1Nc1c(-c2ccncc2OCC2COCCO2)[nH]c2c1C(=O)NCC2 (stereo not shown); 113
2) O=C1NCCc2[nH]c(-c3ccncc3OCC3COCCO3)c(Nc3cccc(Cl)c3Cl)c21 (stereo not shown) [Example 7]; 137
3) O=C1NCCc2[nH]c(-c3ccncc3OCC3COCCO3)c(Nc3cccc(Cl)c3Cl)c21 (single isomer, unassigned) [Example 8]; 79.9
4) COc1c(F)cccc1Nc1c(-c2ccncc2OCC2CN(C)CCO2)[nH]c2c1C(=O)NCC2 (single isomer, unassigned) [Example 13]; 139
5) COc1c(F)cccc1Nc1c(-c2ccncc2OCC2COCCO2)[nH]c2c1C(=O)NCC2 (stereo not shown) [Example 4]; 256
6) CCc1c(Cl)cccc1Nc1c(-c2ccncc2OCC2COCCO2)[nH]c2c1C(=O)NCC2 (stereo not shown); 226
7) COc1c(F)cccc1Nc1c(-c2ccncc2OCC2CN(C)CCO2)[nH]c2c1C(=O)NCC2 (single isomer, unassigned) [Example 14]; 130
8) CN1CCO[C@H](COc2cnccc2-c2[nH]c3c(c2Nc2cccc(F)c2CC(F)F)C(=O)NCC3)C1; 291
9) COc1c(F)cccc1Nc1c(-c2ccncc2OCC2COC(C)(C)CO2)[nH]c2c1C(=O)NCC2 (single isomer, unassigned) [Example 33]; 213
10) COc1c(Cl)cccc1Nc1c(-c2ccncc2OC(C)C2CN(C)CCO2)[nH]c2c1C(=O)NCC2 (single isomer, unassigned) [Example 75]; 4990
11) COc1c(Cl)cccc1Nc1c(-c2ccncc2OCC2COC(C)(C)CO2)[nH]c2c1C(=O)NCC2 (single isomer, unassigned) [Example 32]; 127
12) Cc1c(Cl)cccc1Nc1c(-c2ccncc2OCC2COC(C)(C)CO2)[nH]c2c1C(=O)NCC2 (single isomer, unassigned) [Example 46]; 433
13) COc1c(F)cccc1Nc1c(-c2ccncc2OC[C@@H]2CN(CC(F)F)CCO2)[nH]c2c1C(=O)NCC2; 153
14) Cc1c(F)cccc1Nc1c(-c2ccncc2OCC2CN(C)CCO2)[nH]c2c1C(=O)NCC2 (single isomer, unassigned) [Example 64]; 187
15) COc1c(Cl)cccc1Nc1c(-c2ccncc2O[C@H](C)C2COCCO2)[nH]c2c1C(=O)NCC2 (single isomer, unassigned) [Example 61]; 935
16) O=C1NCCc2[nH]c(-c3ccncc3OCC3COCCO3)c(Nc3cccc(F)c3CC(F)F)c21 (stereo not shown); 115
17) CCc1c(Cl)cccc1Nc1c(-c2ccncc2OC[C@@H]2CN(C)CCO2)[nH]c2c1C(=O)NCC2; 258
18) Cc1c(Cl)cccc1Nc1c(-c2ccncc2OCC2COCCO2)[nH]c2c1C(=O)NCC2 (stereo not shown); 669
19) CCc1c(F)cccc1Nc1c(-c2ccncc2OCC2COC(C)(C)CO2)[nH]c2c1C(=O)NCC2 (single isomer, unassigned) [Example 69]; 233
20) COc1c(Cl)cccc1Nc1c(-c2ccncc2O[C@@H](C)C2COCCO2)[nH]c2c1C(=O)NCC2 (single isomer, unassigned) [Example 59]; 235
21) COc1c(F)cccc1Nc1c(-c2ccncc2OC[C@@H]2COCCN2C)[nH]c2c1C(=O)NCC2; 87.2
22) COc1c(Cl)cc(F)cc1Nc1c(-c2ccncc2OCC2CN(C)CCO2)[nH]c2c1C(=O)NCC2 (stereo not shown); 147
23) COc1c(Cl)cccc1Nc1c(-c2ccncc2OC(C)C2CN(C)CCO2)[nH]c2c1C(=O)NCC2 (single isomer, unassigned) [Example 74]; 661
24) CCc1c(Cl)cccc1Nc1c(-c2ccncc2OC[C@H]2CN(C)CCO2)[nH]c2c1C(=O)NCC2; 257
25) Cc1c(F)cccc1Nc1c(-c2ccncc2OCC2CN(C)CCO2)[nH]c2c1C(=O)NCC2 (stereo not shown) [Example 62]; 237
26) COc1c(F)cccc1Nc1c(-c2ccncc2OCC2CN(C)CCO2)[nH]c2c1C(=O)NCC2 (stereo not shown) [Example 12]; 79.4
27) COc1c(Cl)cccc1Nc1c(-c2ccncc2OCCC2COCCO2)[nH]c2c1C(=O)NCC2 (stereo not shown) [Example 24]; 261
28) COc1c(Cl)cccc1Nc1c(-c2ccncc2OC[C@@H]2COCCN2C)[nH]c2c1C(=O)NCC2; 126
